tested on: HCC 2998; experiment: NCI tumour cell line growth inhibition, 48 h
Activity calls are given as the source filed them. Cut-off read from the data, not from the text of the source: active = GI50 up to about 1.1 µM and inactive = higher.
Reply using exactly one outcome from true for active, false for inactive

COMPOUND: CC(=O)OCC(OC(C)=O)C(OC(C)=O)C(OC(C)=O)C(/C=N\Nc1nc2ccccc2c(=O)[nH]1)OC(C)=O (stereo not given)
MEASUREMENT_TARGET: HCC 2998
CLASSIFICATION: false

Kindly review the next compound as well.
Enquiry: Outcome logged for `O=C(Nc1ccc(Cl)cc1Cl)C1C(=O)OC2(CCCCC2)OC1=O` in this assay:
Return: false

====

tested on: TK-10; experiment: NCI tumour cell line growth inhibition, 48 h
Active and inactive are the calls of the source. Rule as the data show it: active = GI50 up to about 1.1 µM and inactive = higher.
MEASUREMENT_NAME: GI50

Look over these answered cases.
MOLECULE: Nc1nc(Nc2ccccc2)sc1C(=O)c1ccco1
RECORDED_RESULT: 14.2 µM (inactive)
//
MOLECULE: Cc1ccnc(NC(=S)Nc2cccc(Cl)c2)c1
RECORDED_RESULT: > 100 µM (inactive)
//
MOLECULE: O=C(Nc1ccccc1)c1cc2cc(CCl)ccc2oc1=O
RECORDED_RESULT: 39.8 µM (inactive)
//
MOLECULE: CCOC(=O)C1=C(C)N(NC(=O)Nc2ccccc2)C2(N)N(NC(=O)Nc3ccccc3)C(C)=C(C(=O)OCC)C12C(=O)OCC (stereo not given)
RECORDED_RESULT: 80.4 µM (inactive)

// assay TK-10, entry `O=C(CN1CCN(Cc2ccccc2)CC1)c1ccc2[nH]c(=O)oc2c1` , GI50 value = > 100 µM (inactive)

// assay TK-10, entry `Nc1nnc2oc3ccc4ccccc4c3cc1-2` , GI50 value = 42 µM (inactive)

// assay TK-10, entry `CCCCCC(=O)Nc1[nH]cnc1C(N)=O` , GI50 value = > 100 µM (inactive)
